# TARGET_OR_SYSTEM: Metabotropic glutamate receptor 8 (Rattus norvegicus)
# METHOD: mGluR8 Gi/Go-coupled signaling modulation – cell-based, rat, thallium flux, HTS, primary screen (AID 488969)
# TEST_CONTEXT: HEK293 rat mGluR8, GIRK (G protein-gated inwardly rectifying potassium channel) thallium flux, FluoZin2; at 10 µM; stronger effect = higher value; submaximal glutamate (EC20) added with thallium
The full ranking holds about 110,000 compounds; the median of “z-score” is about -0.1, and the highest 2% start at about 2. The sample as a whole holds a higher share of the highest values than the screen did.
Classification field: enter y for z-score values not below 0.1, n for values below it.

### Prompt Entry C/C=C/COC(=O)c1[nH]c2c(c1C)C(=O)CC(c1ccco1)C2 (stereo not given) : is its z-score no less than 0.1?
### Response n

### Prompt Next: COc1ccc(-c2ccc(/C=C3/C(=N)N4C=CSC4=NC3=O)o2)c([N+](=O)[O-])c1
### Response y

### Prompt Then O=C(CN=C1NC(=O)C(c2ccccc2)(c2ccccc2)N1)NCc1ccc(F)cc1 ?
### Response n

### Prompt Okay, and COc1ccc2c(c1)C(NC(=O)C(F)(F)F)CC2=O (stereo not given) ?
### Response y

### Prompt Another molecule to look at: COC(=O)c1cc2ccccc2c(-c2c(O)ccc3ccccc23)c1O
### Response n

### Prompt Next record, please: Cc1cc(C)cc(NS(=O)(=O)c2ccc(NC(=S)NC(=O)c3ccc(Br)o3)cc2)c1
### Response y

### Prompt Proceed to Cn1c(=O)c2c(nc(NCc3ccc4c(c3)OCO4)n2Cc2ccccc2)n(C)c1=O
### Response n

### Prompt Can you handle CCSc1nc(N)c(C#N)c(-c2ccco2)c1C#N next?
### Response n

### Prompt What about this molecule? CC(C)Oc1ccc(C2CC(=O)N(c3ccccc3)C2=O)cc1 (stereo not given)
### Response y

### Prompt Subsequent entry: CCc1ccc(OCC(=O)NC(NC(=S)Nc2ccccc2OC)C(Cl)(Cl)Cl)cc1 (stereo not given)
### Response n

Values compiled from PubChem BioAssay AID488969.
